Entries and their IC50
System: MCF-7 cell line
Assay: MTT metabolic (antiproliferative) assay
Settings: read-out: Cytotoxicity IC50, MCF-7, 48 h, mean ± SD
parameter measured: IC50

INSERT INTO assay_data (compound, result) VALUES
  ('NS(=O)(=O)c1ccc(CCn2c(SCC(=O)Nc3ccccc3)nc3ccccc3c2=O)cc1', '0.82 µM'),
  ('O=c1[nH]c(-c2cccs2)nc2ccc(I)cc12', '21.4 µM'),
  ('CCOc1ccc(NC(=O)CSc2nc3ccccc3c(=O)n2CCc2ccc(S(N)(=O)=O)cc2)cc1', '1.57 µM'),
  ('CN1CC[C@H](c2c(O)cc(O)c3c(=O)cc(-c4ccccc4Cl)oc23)[C@H](O)C1 [Flavopiridol, flavopiridol, reference compound]', '0.04 µM'),
  ('COc1ccc(NC(=O)CSc2nc3ccccc3c(=O)n2CCc2ccc(S(N)(=O)=O)cc2)cc1', '4.65 µM'),
  ('Cc1ccc2nc(-c3cccc(Br)c3)[nH]c(=O)c2c1', '16.8 µM'),
  ('NS(=O)(=O)c1ccc(CCn2c(SCC(=O)Nc3ccc(F)cc3)nc3ccccc3c2=O)cc1', '3.86 µM'),
  ('COc1ccc(CNC(=O)CSc2nc3ccccc3c(=O)n2CCc2ccc(S(N)(=O)=O)cc2)cc1OC', '0.59 µM'),
  ('O=c1[nH]c(-c2ccc(Cl)cc2)nc2ccc([N+](=O)[O-])cc12', '6.07 µM'),
  ('Cc1ccc2nc(-c3cccc(Br)c3)oc(=O)c2c1', '10.4 µM'),
  ('CC(Sc1nc2ccccc2c(=O)n1CCc1ccc(S(N)(=O)=O)cc1)C(=O)Nc1ccc(Cl)cc1 (stereo not drawn)', '0.73 µM'),
  ('NC(=O)CSc1nc2ccccc2c(=O)n1CCc1ccc(S(N)(=O)=O)cc1', '2.31 µM'),
  ('COc1cc(NC(=O)CSc2nc3ccccc3c(=O)n2CCc2ccc(S(N)(=O)=O)cc2)cc(OC)c1OC', '2.48 µM'),
  ('COc1ccc(CNC(=O)CSc2nc3ccccc3c(=O)n2CCc2ccc(S(N)(=O)=O)cc2)cc1', '0.84 µM'),
  ('Cc1ccc2nc(-c3cccc(Br)c3)n(N)c(=O)c2c1', '28.7 µM');

----------
Target: CDK9/cyclin T (Homo sapiens, UniProt P50750)
Sequence (P50750 whole entry): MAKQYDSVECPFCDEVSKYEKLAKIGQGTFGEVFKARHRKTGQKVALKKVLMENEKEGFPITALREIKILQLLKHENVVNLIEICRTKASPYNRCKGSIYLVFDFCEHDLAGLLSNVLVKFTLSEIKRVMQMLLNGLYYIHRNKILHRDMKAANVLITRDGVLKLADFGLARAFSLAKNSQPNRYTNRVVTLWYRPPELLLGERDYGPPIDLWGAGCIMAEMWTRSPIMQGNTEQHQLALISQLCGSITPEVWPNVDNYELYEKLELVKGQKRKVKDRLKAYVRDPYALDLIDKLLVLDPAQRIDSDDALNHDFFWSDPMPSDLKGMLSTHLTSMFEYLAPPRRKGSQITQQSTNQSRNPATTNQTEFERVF
Sequence (O60563 whole entry partner): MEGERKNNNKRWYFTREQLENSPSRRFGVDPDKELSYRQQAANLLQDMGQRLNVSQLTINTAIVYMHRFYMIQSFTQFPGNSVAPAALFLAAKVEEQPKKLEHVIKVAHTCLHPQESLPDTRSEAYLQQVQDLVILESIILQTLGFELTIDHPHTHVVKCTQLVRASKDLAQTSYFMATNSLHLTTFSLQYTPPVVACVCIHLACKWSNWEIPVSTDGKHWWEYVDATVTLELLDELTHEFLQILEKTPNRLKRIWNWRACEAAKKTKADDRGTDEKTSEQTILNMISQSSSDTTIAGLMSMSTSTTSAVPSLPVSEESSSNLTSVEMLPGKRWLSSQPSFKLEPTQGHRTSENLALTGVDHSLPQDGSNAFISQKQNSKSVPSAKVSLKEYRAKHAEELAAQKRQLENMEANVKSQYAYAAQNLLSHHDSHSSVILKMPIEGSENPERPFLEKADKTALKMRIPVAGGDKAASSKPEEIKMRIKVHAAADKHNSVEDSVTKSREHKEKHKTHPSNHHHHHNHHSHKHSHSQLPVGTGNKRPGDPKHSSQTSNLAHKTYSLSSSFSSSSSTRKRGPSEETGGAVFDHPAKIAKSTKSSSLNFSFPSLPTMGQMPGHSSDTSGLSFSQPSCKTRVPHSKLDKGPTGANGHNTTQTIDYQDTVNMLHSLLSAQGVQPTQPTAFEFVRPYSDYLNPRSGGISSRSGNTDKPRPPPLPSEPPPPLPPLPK
Test: In vitro luminescent CDK9 kinase assay (Kinase-Glo MAX)
Assay type: biochemical
Details: CDK9 IC50 as used for LE and LLE; read-out: IC50 (CDK9, Table 4)
Experimental: In vitro luminescent CDK9 kinase assay was performed as reported previously using Kinase- Glo® MAX as a detection reagent. […] The chemiluminescence was measured microplate reader, and IC50 values were calculated using Prism 8.0 (GraphPad Software, San Diego, CA, USA).
pIC50: −log10 of the molar value.
parameter measured: pIC50

INSERT INTO measurements (compound, tgt, recorded_number) VALUES
  ('CC(Sc1nc2ccccc2c(=O)n1CCc1ccc(S(N)(=O)=O)cc1)C(=O)Nc1ccccc1 (stereo not drawn) [Compound 15]', 'CDK9/cyclin T (Homo sapiens, UniProt P50750)', 6.35),
  ('NS(=O)(=O)c1ccc(CCn2c(SCC(=O)Nc3ccc(Cl)cc3)nc3ccccc3c2=O)cc1 [Compound 10]', 'CDK9/cyclin T (Homo sapiens, UniProt P50750)', 6.71),
  ('NS(=O)(=O)c1ccc(CCn2c(SCC(=O)Nc3ccc(F)cc3)nc3ccccc3c2=O)cc1 [Compound 11]', 'CDK9/cyclin T (Homo sapiens, UniProt P50750)', 6.47);

The measurements presented in this section are drawn from paper PMC9822073.
